# system name: 16S ribosomal subunit RNA target
# assay notes: Mass spectrometry based binding assay (FTICR), 16S
# recorded conditions: Example 108
# Procedure: In a typical experiment, 10 μL of an aqueous solution containing 100 mM ammonium acetate buffer, […], and 33% isopropyl alcohol (to aid ion desolvation) was prepared with different concentrations of each ligand or ligand mixture Samples were introduced into the electrospray ionization source (negative ionization mode) at 1 μL/min and ions were stored for 1 sec in an RF-only hexapole following desolvation. […]
value type: pKd
Friendly reminder that pKd comes from taking -log10 of the concentration in mol/L.

1. NCC1OC(OC2C(CO)OC(OC3C(O)C(N)CC(N)C3OC3OC(CNN)C(O)C(O)C3N)C2O)C(N)C(O)C1O (stereo not drawn) [Compound 15i]; 6.22
2. CNCC1OC(OC2C(N)CC(N)C(O)C2OC2OC(CO)C(OC3OC(CN)C(O)C(O)C3N)C2O)C(N)C(O)C1O (stereo not drawn) [Compound 15e]; 6.40

Measured on 16S ribosomal subunit RNA target, NCCCCNCC1OC(OC2C(N)CC(N)C(O)C2OC2OC(CO)C(OC3OC(CN)C(O)C(O)C3N)C2O)C(N)C(O)C1O (stereo not drawn) [Compound 15f] has a documented pKd of 5.20

----------
# system name: 18S ribosomal subunit RNA target
# assay notes: Mass spectrometry based binding assay (FTICR), 18S
# recorded conditions: Example 106
Label Met when Kd < 2000 nM; otherwise Not met.

Example entries begin here.
1) NCC1OC(OC2C(CO)OC(OC3C(O)C(N)CC(N)C3OC3OC(CO)C(O)C(O)C3N)C2OCCN(CCc2ccccc2)C(=O)c2ccccc2)C(N)C(O)C1O (stereo not drawn); Not met
2) NC[C@@H]1O[C@H](O[C@H]2[C@@H](O)[C@H](O[C@@H]3[C@@H](O)[C@H](N)C[C@H](N)[C@H]3O[C@H]3O[C@H](CN)[C@@H](O)[C@H](O)[C@H]3N)O[C@@H]2CO)[C@H](N)[C@@H](O)[C@@H]1O [Neomycin B, reference compound]; Met
3) NCC1OC(OC2C(CO)OC(OC3C(O)C(N)CC(N)C3OC3OC(CO)C(O)C(O)C3N)C2OCCNCCc2ccc(-c3ccccc3)cc2)C(N)C(O)C1O (stereo not drawn); Not met
4) NC[C@@H]1O[C@H](O[C@H]2[C@@H](O)[C@H](O[C@@H]3[C@@H](O)[C@H](N)C[C@H](N)[C@H]3O[C@H]3O[C@H](CO)[C@@H](O)[C@H](O)[C@H]3N)O[C@@H]2CO)[C@H](N)[C@@H](O)[C@@H]1O [paromomycin, reference compound]; Not met
5) CC(=O)N(CCOC1C(OC2C(O)C(N)CC(N)C2OC2OC(CO)C(O)C(O)C2N)OC(CO)C1OC1OC(CN)C(O)C(O)C1N)CCc1ccccc1 (stereo not drawn); Not met

Attention now shifts to the item below.
For NCC1OC(OC2C(CO)OC(OC3C(O)C(N)CC(N)C3OC3OC(CO)C(O)C(O)C3N)C2OCCNC23CC4CC(CC(O)(C4)C2)C3)C(N)C(O)C1O (stereo not drawn) , is the recorded Kd below the cut-off of 2000 nM?
Met

----------
# system name: 18S ribosomal subunit RNA target
# assay notes: Mass spectrometry based binding assay (FTICR), 18S
# recorded conditions: FTICR mass spectrometry; Example 105
value type: pKd
Friendly reminder that pKd comes from taking -log10 of the concentration in mol/L.

Measured on 18S ribosomal subunit RNA target, NCC1OC(OC2C(CO)OC(OC3C(O)C(N)CC(N)C3OC3OC(CO)C(O)C(O)C3N)C2OCCNCc2ccnc(N)c2)C(N)C(O)C1O (stereo not drawn) has a documented pKd of 6.52

Measured on 18S ribosomal subunit RNA target, NCC1OC(OC2C(CO)OC(OC3C(O)C(N)CC(N)C3OC3OC(CO)C(O)C(O)C3N)C2OCCNCCCCc2ccccc2)C(N)C(O)C1O (stereo not drawn) has a documented pKd of 5.19

Measured on 18S ribosomal subunit RNA target, NCC1OC(OC2C(CO)OC(OC3C(O)C(N)CC(N)C3OC3OC(CO)C(O)C(O)C3N)C2OCCNc2cccnc2)C(N)C(O)C1O (stereo not drawn) has a documented pKd of 5.46

Measured on 18S ribosomal subunit RNA target, NC[C@@H]1O[C@H](O[C@H]2[C@@H](OCCCCCc3ccccc3)[C@H](O[C@@H]3[C@@H](O)[C@H](N)C[C@H](N)[C@H]3O[C@H]3O[C@H](CO)[C@@H](O)[C@H](O)[C@H]3N)O[C@@H]2CO)[C@H](N)[C@@H](O)[C@@H]1O [Compound 14c] has a documented pKd of 4.23

Measured on 18S ribosomal subunit RNA target, NCC1OC(OC2C(CO)OC(OC3C(O)C(N)CC(N)C3OC3OC(CO)C(O)C(O)C3N)C2OCCNCCc2ccccc2)C(N)C(O)C1O (stereo not drawn) has a documented pKd of 5.89

Reference source for all entries: patent US8569264B2
